# study.system: UGT1A9 (Homo sapiens, UniProt O60656)
# Construct: The typical incubation mixture contained human liver microsomes (0.5 mg/mL) along with SKN (10 μM); tissue BD Gentest; host or cells: human liver microsomes
# Sequence (O60656 26-530): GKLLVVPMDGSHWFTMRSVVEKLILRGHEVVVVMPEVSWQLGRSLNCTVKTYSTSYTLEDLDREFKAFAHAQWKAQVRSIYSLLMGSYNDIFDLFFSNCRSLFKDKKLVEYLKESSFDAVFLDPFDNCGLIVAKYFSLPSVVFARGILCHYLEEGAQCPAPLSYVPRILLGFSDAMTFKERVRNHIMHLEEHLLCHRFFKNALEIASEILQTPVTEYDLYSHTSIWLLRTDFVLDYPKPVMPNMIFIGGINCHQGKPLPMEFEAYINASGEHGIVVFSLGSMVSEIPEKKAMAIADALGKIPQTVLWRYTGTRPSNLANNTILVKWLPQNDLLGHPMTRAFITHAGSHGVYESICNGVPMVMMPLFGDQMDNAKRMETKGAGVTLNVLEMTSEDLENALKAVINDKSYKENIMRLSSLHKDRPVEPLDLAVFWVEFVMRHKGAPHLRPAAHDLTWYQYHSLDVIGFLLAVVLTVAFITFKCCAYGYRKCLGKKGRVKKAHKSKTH
# experiment.description: UGT inhibition in human liver microsomes, mycophenolic acid O-glucuronidation (MPAG)
# Format: in vitro ADME
# condition.description: human, human liver microsomes, pH 7.4, probe mycophenolic acid (200 μM), O-glucuronidation (MPAG), UGT1A9, MPAG, SKN 10 μM, human liver microsomes; read-out: % Inhibition in Co-Incubation
measured.endpoint: inhibition at 10 μM (%)
Give bare numbers, in %.

Can you share its inhibition at 10 μM? I mean this compound: COc1cc(O)c2c(c1)OC(c1ccc(O)cc1)CC2=O (racemic) [SKN, (+/−) 7-O-methylnaringenin]
-0.6

Data origin: paper PMC6100415
